biological target: human acetyl-CoA carboxylase 2 (ACC2) (Homo sapiens); construct: The cDNA encoding amino acids 144 to 2458 of human acetyl-CoA carboxylase 2; made in house; host or cells: Sf9 insect cells (baculovirus, pFastBac1); experiment: Acetyl-CoA carboxylase enzyme assay (malonyl-CoA formation by LC/MS/MS); format: biochemical; settings: recombinant human ACC2 (aa 144-2458); read-out: IC50 ACC2
Sequence (O00763 144-2458): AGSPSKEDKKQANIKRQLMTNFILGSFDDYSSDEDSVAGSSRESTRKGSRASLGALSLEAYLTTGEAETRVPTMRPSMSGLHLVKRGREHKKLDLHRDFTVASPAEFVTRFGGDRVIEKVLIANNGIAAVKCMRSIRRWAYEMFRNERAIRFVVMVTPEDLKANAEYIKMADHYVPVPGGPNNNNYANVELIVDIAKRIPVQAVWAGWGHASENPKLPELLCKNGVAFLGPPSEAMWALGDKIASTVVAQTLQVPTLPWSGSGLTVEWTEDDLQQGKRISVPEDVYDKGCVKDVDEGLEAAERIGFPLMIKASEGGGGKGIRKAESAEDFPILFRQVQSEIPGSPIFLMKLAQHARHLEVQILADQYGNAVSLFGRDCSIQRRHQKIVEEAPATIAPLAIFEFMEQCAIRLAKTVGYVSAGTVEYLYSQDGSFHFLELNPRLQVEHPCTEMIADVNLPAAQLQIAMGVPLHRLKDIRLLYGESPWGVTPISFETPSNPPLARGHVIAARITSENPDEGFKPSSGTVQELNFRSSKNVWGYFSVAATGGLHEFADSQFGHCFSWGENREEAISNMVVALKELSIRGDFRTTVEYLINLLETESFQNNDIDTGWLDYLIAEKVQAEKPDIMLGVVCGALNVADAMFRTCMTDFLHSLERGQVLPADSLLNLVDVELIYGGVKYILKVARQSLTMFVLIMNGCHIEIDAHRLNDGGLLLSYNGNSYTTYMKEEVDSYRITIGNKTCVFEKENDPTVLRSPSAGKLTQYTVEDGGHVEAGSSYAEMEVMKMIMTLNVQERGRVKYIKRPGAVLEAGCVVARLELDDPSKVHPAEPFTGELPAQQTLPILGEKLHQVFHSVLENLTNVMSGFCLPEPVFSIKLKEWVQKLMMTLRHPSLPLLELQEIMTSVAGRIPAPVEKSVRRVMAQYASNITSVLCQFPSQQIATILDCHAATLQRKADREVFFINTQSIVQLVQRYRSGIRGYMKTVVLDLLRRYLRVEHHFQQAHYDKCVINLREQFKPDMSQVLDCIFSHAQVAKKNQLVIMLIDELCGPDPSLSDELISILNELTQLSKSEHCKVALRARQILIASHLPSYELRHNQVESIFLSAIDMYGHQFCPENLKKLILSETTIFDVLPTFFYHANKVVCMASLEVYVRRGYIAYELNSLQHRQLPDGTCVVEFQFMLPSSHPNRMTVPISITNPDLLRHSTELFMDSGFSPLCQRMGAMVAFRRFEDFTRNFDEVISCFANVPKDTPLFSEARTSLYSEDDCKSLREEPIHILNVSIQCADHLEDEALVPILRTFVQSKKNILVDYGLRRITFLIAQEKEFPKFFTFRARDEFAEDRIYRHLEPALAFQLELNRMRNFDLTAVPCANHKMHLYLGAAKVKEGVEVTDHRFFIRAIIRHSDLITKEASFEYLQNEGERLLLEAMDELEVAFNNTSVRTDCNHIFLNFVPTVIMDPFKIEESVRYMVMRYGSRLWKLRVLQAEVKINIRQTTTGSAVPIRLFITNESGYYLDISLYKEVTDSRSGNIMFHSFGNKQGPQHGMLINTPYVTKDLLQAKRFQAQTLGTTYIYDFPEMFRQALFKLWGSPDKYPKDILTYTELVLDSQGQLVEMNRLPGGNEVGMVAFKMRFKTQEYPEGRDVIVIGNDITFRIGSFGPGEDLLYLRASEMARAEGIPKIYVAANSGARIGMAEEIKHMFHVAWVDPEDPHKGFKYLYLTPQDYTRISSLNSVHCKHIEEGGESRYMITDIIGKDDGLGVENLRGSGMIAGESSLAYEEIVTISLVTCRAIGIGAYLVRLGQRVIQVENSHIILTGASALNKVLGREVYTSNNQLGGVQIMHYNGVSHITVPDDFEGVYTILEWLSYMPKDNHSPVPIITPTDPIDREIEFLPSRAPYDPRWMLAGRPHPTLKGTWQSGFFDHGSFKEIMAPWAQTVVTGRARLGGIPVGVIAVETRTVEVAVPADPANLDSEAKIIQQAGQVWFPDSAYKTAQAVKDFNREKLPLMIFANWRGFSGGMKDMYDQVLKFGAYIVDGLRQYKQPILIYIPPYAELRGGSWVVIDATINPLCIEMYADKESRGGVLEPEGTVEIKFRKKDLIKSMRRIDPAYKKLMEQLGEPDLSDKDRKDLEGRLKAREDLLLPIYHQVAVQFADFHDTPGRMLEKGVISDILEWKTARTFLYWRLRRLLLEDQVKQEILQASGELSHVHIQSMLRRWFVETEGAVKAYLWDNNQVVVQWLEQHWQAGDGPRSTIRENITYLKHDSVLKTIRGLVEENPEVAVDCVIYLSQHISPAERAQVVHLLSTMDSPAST
Measured log10 of IC50 by item
Please interpret these as log10 of IC50 where IC50 is in nM.

See these solved cases before continuing.
Bench note: what log10 of IC50 did COc1ccc(-c2cc3ccc(S(=O)(=O)N[C@H]4CC[C@H](C(=O)N5CCOC[C@@H]5C)CC4)cc3n2C)cc1 [Example 440] show?
1.30

What value of measured log10 of IC50 is listed for CC(C)(C)c1nnc([C@H]2CC[C@H](NS(=O)(=O)c3ccc4[nH]c(-c5cccnc5)nc4c3)CC2)o1 [Example 653] ?
3.31

Requested field: log10 of IC50. Item: Cc1c(C2CC2)n(C)c2cc(S(=O)(=O)N[C@H]3CC[C@H](C(=O)N4CCOC[C@@H]4C)CC3)ccc12 [Example 32]
2.39

I'd like to know its log10 of IC50. The compound in question is COc1ccc(Nc2nc3cc(S(=O)(=O)Nc4ccc(-c5nnc(C(C)C)o5)cc4)ccc3[nH]2)cc1 [Example 602]
2.73

Endpoint output: log10 of IC50 of C[C@@H]1CN(C(=O)[C@H]2CC[C@H](NS(=O)(=O)c3ccc4c(C#N)c(C5CC5)n(C)c4c3)CC2)C[C@H](C)O1 [Example 417] . Value?
1.90

Continuing:
Entry CC1CCc2cc(S(=O)(=O)N[C@H]3CC[C@H](C(=O)N[C@H](C)c4ccc(F)cc4)CC3)ccc2N1 (stereo partly drawn) [Example 169] has what log10 of IC50?
2.04

Which log10 of IC50 value is on record for C[C@@H](NC(=O)[C@H]1CC[C@H](NS(=O)(=O)c2ccc3nc(-c4cccnc4)ccc3c2)CC1)c1ccc(F)cc1 [Example 218] ?
1.30

# input compound: O=C([C@H]1CC[C@H](NS(=O)(=O)c2cnc3ccccc3c2)CC1)N1CCCC1c1ccccc1 (stereo partly drawn) [Example 43] ; wanted: its log10 of IC50
2.61

Report log10 of IC50 for C[C@@H](NC(=O)[C@]1(C)CC[C@@H](NS(=O)(=O)c2cnc3c(c2)NCCN3)CC1)c1ccc(F)cc1 [Example 197] please.
1.60

I'd like to know its log10 of IC50. The compound in question is C[C@@H](NC(=O)[C@H]1CC[C@H](NS(=O)(=O)c2ccc3ccccc3c2)CC1)c1ccc(F)cc1 [Example 677]
1.00

Find the recorded log10 of IC50 belonging to Cc1ccccc1-c1cc2ccc(S(=O)(=O)N[C@H]3CC[C@H](C(=O)N[C@H](C)c4ccc(F)cc4)CC3)cc2[nH]1 [Example 292] and report it.
1.08

State the recorded log10 of IC50 for this entry: C[C@@H](NC(=O)[C@H]1CC[C@H](NS(=O)(=O)c2ccc3nc(C#CCN4CCNCC4)ccc3c2)CC1)c1ccc(F)cc1 [Example 247]
1.48

Requested field: log10 of IC50. Item: Cn1c(-c2ccccc2)cc2ccc(S(=O)(=O)N[C@H]3CC[C@H](C(=O)N4CCN(C5CC5)CC4)CC3)cc21 [Example 406]
2.99

Record request: log10 of IC50 value, item C[C@@H](NC(=O)[C@H]1CC[C@H](NS(=O)(=O)c2ccc3c(c2)CCC(=O)N3)CC1)c1ccc(F)cc1 [Example 110]
2.46

Fill in: log10 of IC50 of COCCOc1ccc(-c2cc3ccc(S(=O)(=O)N[C@H]4CC[C@H](C(=O)N5CCOC[C@@H]5C)CC4)cc3n2C)cc1 [Example 448] is ___
1.81

Entry under review: C[C@@H](NC(=O)[C@H]1CC[C@H](NS(=O)(=O)c2ccc3c(c2)N(C)C(=O)CO3)CC1)c1ccc(F)cc1 [Example 156] . Reported log10 of IC50?
2.26

Look at this compound and give its reported log10 of IC50. Cc1c(-c2ccccc2)nc2ccc(S(=O)(=O)N[C@H]3CC[C@H](C(=O)N[C@H](C)c4ccc(F)cc4)CC3)cn12 [Example 70]
2.22
